assayed.system: SSTR5 (Homo sapiens)
test.description: Functional assay of inhibition of SSTR5 mediated cyclic AMP production in SSTR5 expressing CHO cells
Assay type: cell-based, human
protocol.conditions: forskolin (FSK) plus SS-28, read-out: cAMP IC50
Structures can show the parent of a compound that is named as a salt.
assay.endpoint: IC50 (nM)
Give the value in nM but do not write nM after it.

INSERT INTO assay_data (compound, assayed_system, recorded_result) VALUES
  ('CC(C)(C)n1cc(CN2CCC3(CC2)CC(c2ccc(C(=O)O)cn2)=NO3)c(-c2ccc(F)c(Cl)c2)n1 [Example 27]', 'SSTR5 (Homo sapiens)', 8.8);

Q. Look at this compound and give its reported IC50. O=C(O)c1ccc(C2=NOC3(CCN(Cc4cn(C5CC5)c5ccc(C6CC6)cc45)CC3)C2)cc1 [Example 49, TFA salt]
A. 2.5

Q. Subsequent entry: O=C(O)c1ccc(C2=NOC3(CCN(Cc4cn(C5CC5)c5c(C6CC6)cccc45)CC3)C2)cc1 [Example 50, TFA salt]
A. 13.5

Q. Subsequent entry: CCOc1cc(CN2CCC3(CC2)CC(c2ccc(C(=O)O)cc2)=NO3)cc(OCC)c1OCC(F)(F)F [Example 5]
A. 2.4

---

assayed.system: SSTR5 (Homo sapiens, UniProt P35346)
Sequence (P35346 whole entry): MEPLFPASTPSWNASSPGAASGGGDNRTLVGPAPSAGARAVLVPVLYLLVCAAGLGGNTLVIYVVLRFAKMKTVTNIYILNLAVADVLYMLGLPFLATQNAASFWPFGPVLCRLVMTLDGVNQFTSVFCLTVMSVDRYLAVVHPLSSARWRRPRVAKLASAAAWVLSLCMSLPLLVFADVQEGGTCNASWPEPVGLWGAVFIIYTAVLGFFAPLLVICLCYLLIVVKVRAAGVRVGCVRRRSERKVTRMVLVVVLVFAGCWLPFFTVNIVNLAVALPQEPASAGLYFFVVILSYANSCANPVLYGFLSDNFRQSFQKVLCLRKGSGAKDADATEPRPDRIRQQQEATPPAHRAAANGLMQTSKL
test.description: Functional assay of inhibition of SSTR5 mediated cyclic AMP production in SSTR5 expressing CHO cells
Format: cell-based, human
protocol.conditions: forskolin (FSK) plus SS-28, read-out: cAMP IC50
Structures can show the parent of a compound that is named as a salt.
assay.endpoint: IC50 (nM)
Give the value in nM but do not write nM after it.

Examples with their reported IC50 follow.
INSERT INTO assay_data (molecule, assay_endpoint, recorded_result) VALUES
  ('CC1(C)CC2(CC2)c2cc(CN3CCC4(CC3)CC(c3ccc(C(=O)O)cc3)=NO4)cc(Cl)c2O1 [Example 96, TFA salt]', 'IC50', 9.4),
  ('CC(C)n1cc(CN2CCC3(CC2)CC(c2ccc(C(=O)O)cc2)=NO3)c2cc(F)ccc21 [Example 51, TFA salt]', 'IC50', 8.32),
  ('CCOc1cc(CN2CCC3(CC2)CC(c2ccc(C(=O)O)cc2)=NO3)ccc1Cl', 'IC50', 1.3),
  ('CCOc1ccc(-c2cc(F)c(F)cc2F)c(CN2CCC3(CC2)CC(c2ccc(C(=O)O)cc2)=NO3)c1', 'IC50', 5.7),
  ('CC(C)n1cc(CN2CCC3(CC2)CC(c2ccc(C(=O)O)cc2)=NO3)c2c(F)c(F)c(F)c(F)c21 [Example 46, TFA salt]', 'IC50', 12.1),
  ('CC(C)n1cc(CN2CCC3(CC2)CC(c2ccc(C(=O)O)cc2)=NO3)c2c(-c3ccc(F)cc3)cccc21 [Example 39, TFA salt]', 'IC50', 0.18);

From here, focus on the item given below.
Q. # value lookup — system SSTR5 (Homo sapiens, UniProt P35346), readout IC50, item CC1(C)CCOc2c(Cl)cc(CN3CCC4(CC3)CC(c3ccc(C(=O)O)cc3)=NO4)cc21 [Example 87, trifluoroacetate]
A. 1.5

---

assayed.system: SSTR5 (Homo sapiens, UniProt P35346)
test.description: Functional assay of inhibition of SSTR5 mediated cyclic AMP production in SSTR5 expressing CHO cells
Type: cell-based, human
protocol.conditions: forskolin (FSK) plus SS-28, read-out: cAMP IC50
Where a name gives a salt, the structure may show the parent alone.
Entries and their IC50
Give the value in nM but do not write nM after it.

Examples with their reported IC50 follow.
INSERT INTO assay_data (compound, assay_endpoint, recorded_result) VALUES
  ('CC(C)n1cc(CN2CCC3(CC2)CC(c2ccc(C(=O)O)cc2)=NO3)c2c(C3CC3)cccc21 [Example 47, TFA salt]', 'IC50', 0.28),
  ('CC(C)n1cc(CN2CCC3(CC2)CC(c2ccc(C(=O)O)cc2)=NO3)c2cccc(C3CC3)c21 [Example 48, TFA salt]', 'IC50', 3.36),
  ('CC1(C)CCSc2c(C3CC3)cc(CN3CCC4(CC3)CC(c3ccc(C(=O)O)cc3)=NO4)cc21 [Example 98, TFA salt]', 'IC50', 12.6),
  ('CC1(C)CC2(CC2)c2cc(CN3CCC4(CC3)CC(c3ccc(C(=O)O)cc3)=NO4)cc(C3CC3)c2O1 [Example 97, TFA salt]', 'IC50', 4.05),
  ('Cc1cccc2c(CN3CCC4(CC3)CC(c3ccc(C(=O)O)cc3)=NO4)cn(C3CC3)c12 [Example 45, TFA salt]', 'IC50', 9.15);

Q. # value lookup — system SSTR5 (Homo sapiens, UniProt P35346), readout IC50, item CC(C)(C)n1cc(CN2CCC3(CC2)CC(c2ccc(C(=O)O)cc2)=NO3)c(-c2ccc(F)c(Cl)c2)n1 [Example 24]
A. 1.8

Q. Subsequent entry: Cc1cccc2c(CN3CCC4(CC3)CC(c3ccc(C(=O)O)cc3)=NO4)cn(C(C)C)c12 [Example 44, TFA salt]
A. 14.4

---

assayed.system: SSTR5 (Homo sapiens, UniProt P35346)
test.description: SSTR5 receptor-ligand binding assay, CHO-K1 cell membranes, 125I-SRIF radioligand
Design: expressed in transfected cells
protocol.conditions: Table 4, read-out: Bnd IC50
Counter-ions that a name gives are not always drawn.
assay.endpoint: IC50

INSERT INTO results (compound, assayed_system, assay_endpoint, recorded_result) VALUES
  ('CCOc1cc(CN2CCC3(CC2)CC(c2ccc(C(=O)O)cc2)=NO3)ccc1Cl [Example 12]', 'SSTR5 (Homo sapiens, UniProt P35346)', 'IC50', '7.5 nM'),
  ('CCOc1ccc(-c2ccc(F)c(F)c2F)c(CN2CCC3(CC2)CC(c2ccc(C(=O)O)cn2)=NO3)c1 [Example 30]', 'SSTR5 (Homo sapiens, UniProt P35346)', 'IC50', '0.41 nM'),
  ('CCOc1cc(CN2CCC3(CC2)CC(c2ccc(C(=O)O)cc2)=NO3)c(-c2nccs2)cc1C [Example 19]', 'SSTR5 (Homo sapiens, UniProt P35346)', 'IC50', '1.5 nM'),
  ('CCOc1cc(CN2CCC3(CC2)CC(c2ccc(C(=O)O)cc2)=NO3)cc(OCC)c1-c1ccc(F)cc1 [Example 1, TFA salt]', 'SSTR5 (Homo sapiens, UniProt P35346)', 'IC50', '1.2 nM'),
  ('CCOc1cc(CN2CCC3(CC2)CC(c2ccc(C(=O)O)cc2)=NO3)cc(OCC)c1OCC(F)(F)F [Example 5]', 'SSTR5 (Homo sapiens, UniProt P35346)', 'IC50', '6 nM'),
  ('CC(C)Oc1ccc(-c2ccc(F)c(F)c2)c(CN2CCC3(CC2)CC(c2ccc(C(=O)O)cc2)=NO3)c1 [Example 13]', 'SSTR5 (Homo sapiens, UniProt P35346)', 'IC50', '2.9 nM'),
  ('CC(C)(C)n1cc(CN2CCC3(CC2)CC(c2ccc(C(=O)O)cc2)=NO3)c(-c2ccc(F)c(F)c2F)n1 [Example 3, TFA salt]', 'SSTR5 (Homo sapiens, UniProt P35346)', 'IC50', '2.8 nM'),
  ('CCOc1cc(CN2CCC3(CC2)CC(c2ccc(C(=O)O)cn2)=NO3)c(-c2ccc(F)c(F)c2F)cc1C [Example 29]', 'SSTR5 (Homo sapiens, UniProt P35346)', 'IC50', '0.99 nM');

Q. Look at this compound and give its reported IC50. CCOc1cc(CN2CCC3(CC2)CC(c2ccc(C(=O)O)cc2)=NO3)c(-c2ccc(F)nc2)cc1C [Example 26]
A. 0.33 nM

Q. Subsequent entry: CC(C)(C)n1cc(CN2CCC3(CC2)CC(c2ccc(C(=O)O)cn2)=NO3)c(-c2ccc(F)c(Cl)c2)n1 [Example 27]
A. 10 nM

Q. Subsequent entry: CCOc1ccc(-c2ccc(F)cc2F)c(CN2CCC3(CC2)CC(c2ccc(C(=O)O)cc2)=NO3)c1 [Example 4]
A. 2.9 nM

---

assayed.system: SSTR5 (Homo sapiens)
test.description: Functional assay of inhibition of SSTR5 mediated cyclic AMP production in SSTR5 expressing CHO cells
Type: cell-based, human
protocol.conditions: forskolin (FSK) plus SS-28, read-out: cAMP IC50
Where a name gives a salt, the structure may show the parent alone.
Entries and their IC50
Give the value in nM but do not write nM after it.

Examples with their reported IC50 follow.
INSERT INTO assay_data (compound, assay_endpoint, recorded_result) VALUES
  ('CC(C)n1cc(CN2CCC3(CC2)CC(c2ccc(C(=O)O)cc2)=NO3)c2c(-c3ccc(F)cc3)ccnc21 [Example 43, TFA salt]', 'IC50', 2.5),
  ('CCOc1cc(CN2CCC3(CC2)CC(c2ccc(C(=O)O)cc2)=NO3)c(-c2nccs2)cc1C', 'IC50', 0.94),
  ('CCOc1cc(CN2CCC3(CC2)CC(c2ccc(C(=O)O)cn2)=NO3)cc(OCC)c1-c1ccc(F)cc1', 'IC50', 2.6),
  ('CCOc1ccc(-c2ccc(F)c(F)c2F)c(CN2CCC3(CC2)CC(c2ccc(C(=O)O)cn2)=NO3)c1', 'IC50', 0.76),
  ('CC(C)Oc1ccc(-c2ccc(F)c(F)c2)c(CN2CCC3(CC2)CC(c2ccc(C(=O)O)cc2)=NO3)c1', 'IC50', 2.9);

Q. # value lookup — system SSTR5 (Homo sapiens), readout IC50, item "CCOc1ccc(-c2ccc(F)cc2F)c(CN2CCC3(CC2)CC(c2ccc(C(=O)O)cc2)=NO3)c1"
A. 3

Q. Subsequent entry: Cc1cc(CN2CCC3(CC2)CC(c2ccc(C(=O)O)cc2)=NO3)cc2c1OC(C)(C)CC2 [Example 91, TFA salt]
A. 72.7

Q. Subsequent entry: "CCOc1cc(CN2CCC3(CC2)CC(c2ccc(C(=O)O)cc2)=NO3)c(-c2ccc(F)nc2)cc1C"
A. 0.32

Q. Subsequent entry: CC(C)(C)n1cc(CN2CCC3(CC2)CC(c2ccc(C(=O)O)cc2)=NO3)c(-c2ccc(F)c(F)c2F)n1 [Example 3, TFA salt]
A. 8.2

Q. Subsequent entry: "CCOc1cc(CN2CCC3(CC2)CC(c2ccc(C(=O)O)cn2)=NO3)c(-c2ccc(F)c(F)c2F)cc1C"
A. 5.6

Every entry's value here was drawn from patent US20130040978A1.
